test: Plasma pharmacokinetics of Compound 9 and orforglipron in DIO hGLP-1R mice; conditions: hGLP-1R transgenic (expressing human GLP-1R), mouse, in vivo, po, 2 mg/kg
REPORTED_PROPERTY: AUC(0-t) (ng·h/mL)
Write down the numeric answer in ng·h/mL and omit the unit.

Report measured AUC(0-t); entry is Cc1cc(-n2nc3c(c2-n2ccn(-c4ccc5c(cnn5C)c4F)c2=O)[C@H](C)N(C(=O)c2cc4cc([C@H]5CCOC(C)(C)C5)ccc4n2[C@@]2(c4noc(=O)[nH]4)C[C@@H]2C)CC3)cc(C)c1F [orforglipron]
2670

###

test: Plasma pharmacokinetics of Compound 9 and orforglipron in DIO hGLP-1R mice; conditions: hGLP-1R transgenic (expressing human GLP-1R), mouse, in vivo, po, 2 mg/kg
REPORTED_PROPERTY: Cmax (ng/mL)
Write down the numeric answer in ng/mL and omit the unit.

Report measured Cmax; entry is `Cc1cc(-n2nc3c(c2-n2ccn(-c4ccc5c(cnn5C)c4F)c2=O)[C@H](C)N(C(=O)c2cc4cc([C@H]5CCOC(C)(C)C5)ccc4n2[C@@]2(c4noc(=O)[nH]4)C[C@@H]2C)CC3)cc(C)c1F`
251

###

assay: Plasma pharmacokinetics of Compound 9 and orforglipron in DIO hGLP-1R mice; settings: hGLP-1R transgenic (expressing human GLP-1R), mouse, in vivo, po, 0.2 mg/kg
REPORTED_PROPERTY: Cmax (ng/mL)
Write down the numeric answer in ng/mL and omit the unit.

Report measured Cmax; entry is `Cc1cc(-n2nc3c(c2-n2ccn(-c4ccc5c(cnn5C)c4F)c2=O)[C@H](C)N(C(=O)c2cc4cc([C@H]5CCOC(C)(C)C5)ccc4n2[C@@]2(c4noc(=O)[nH]4)C[C@@H]2C)CC3)cc(C)c1F`
47.4

###

experiment: Plasma pharmacokinetics of Compound 9 and orforglipron in DIO hGLP-1R mice; details: hGLP-1R transgenic (expressing human GLP-1R), mouse, in vivo, po, 3 mg/kg
REPORTED_PROPERTY: AUC(0-t) (ng·h/mL)
Write down the numeric answer in ng·h/mL and omit the unit.

Report measured AUC(0-t); entry is `N#Cc1nn(-c2cc(Cl)c(Oc3n[nH]c(=O)c4ccccc34)c(Cl)c2)c(=O)[nH]c1=O`
19000

Recorded values, source patent US12485118B2.
